Each recorded value in this set is attributed to paper PMC12102759.

# Lookup of reported screen value keyed by entry
B1: AZIN2 peptide 1-16 (Antizyme inhibitor 2), 16-mer library wild type / NSP3 ADRP (ORF1ab Nsp3b ADRP, residues 1023-1192) (parent)
chain 1: MAGYLSESDFVMVEEG
chain 2: not shown

Variants of: B1
Conditions: with NSP3 ADRP (ORF1ab Nsp3b ADRP, residues 1023-1192); bait immobilised on MaxiSorp plates (10 µg), library pre-cleared on GST, 2 h binding at 4 °C, five washes; one round per day, days 1-4; value from days 2 and 3; keep out of graded; scale: average fractional NGS count over selection days 2 and 3
Answer field: number only, no words.

A selection of reference data follows.
mutation-annotation	obs-value
chain 1 S8D	1.43e-05
chain 1 M12D	6.55e-05
chain 1 F10S	1.39e-05
chain 1 E15K	0
chain 1 E7T	0

QUERY: Entry chain 1 V11K : reported screen value = ?
RESULT: 2.1e-05

QUERY: Entry chain 1 V11N : reported screen value = ?
RESULT: 1.5e-05

QUERY: Entry chain 1 V11Q : reported screen value = ?
RESULT: 1.04e-05

QUERY: Entry chain 1 S6H : reported screen value = ?
RESULT: 0

QUERY: Entry chain 1 E14H : reported screen value = ?
RESULT: 3.26e-05

QUERY: Entry chain 1 E14A : reported screen value = ?
RESULT: 3.37e-05

QUERY: Entry chain 1 G16W : reported screen value = ?
RESULT: 5.19e-05

QUERY: Entry chain 1 A2G : reported screen value = ?
RESULT: 0

QUERY: Entry chain 1 D9T : reported screen value = ?
RESULT: 2.66e-05

QUERY: Entry chain 1 M12P : reported screen value = ?
RESULT: 6.03e-05

QUERY: Entry chain 1 V11R : reported screen value = ?
RESULT: 4.17e-05

QUERY: Entry chain 1 V13P : reported screen value = ?
RESULT: 5.36e-05
